- STUDY SYSTEM: Integrin alpha-4/beta-1 (Homo sapiens, UniProt P05556+P13612)
- Sequence (P05556 whole entry): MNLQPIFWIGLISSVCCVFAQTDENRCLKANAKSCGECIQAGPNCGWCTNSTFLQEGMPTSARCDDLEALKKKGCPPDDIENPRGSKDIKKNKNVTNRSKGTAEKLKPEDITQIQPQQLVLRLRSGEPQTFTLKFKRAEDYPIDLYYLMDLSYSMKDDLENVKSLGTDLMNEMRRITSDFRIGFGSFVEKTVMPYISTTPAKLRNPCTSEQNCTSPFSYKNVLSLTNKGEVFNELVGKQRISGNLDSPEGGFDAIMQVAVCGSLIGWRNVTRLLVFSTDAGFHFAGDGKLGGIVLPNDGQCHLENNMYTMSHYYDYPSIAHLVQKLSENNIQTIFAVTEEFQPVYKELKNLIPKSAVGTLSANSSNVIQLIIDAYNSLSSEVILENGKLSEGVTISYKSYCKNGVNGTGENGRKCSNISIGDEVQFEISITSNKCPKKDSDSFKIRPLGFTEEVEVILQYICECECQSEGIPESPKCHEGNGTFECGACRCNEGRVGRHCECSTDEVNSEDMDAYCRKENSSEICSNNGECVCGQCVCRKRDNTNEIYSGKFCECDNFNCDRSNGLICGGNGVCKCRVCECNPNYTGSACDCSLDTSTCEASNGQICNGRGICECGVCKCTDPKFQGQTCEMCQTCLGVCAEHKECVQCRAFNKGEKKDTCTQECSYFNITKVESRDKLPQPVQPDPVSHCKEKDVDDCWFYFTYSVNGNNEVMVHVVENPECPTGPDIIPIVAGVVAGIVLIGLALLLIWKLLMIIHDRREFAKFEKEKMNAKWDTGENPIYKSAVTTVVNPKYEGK
- Sequence (P13612 whole entry): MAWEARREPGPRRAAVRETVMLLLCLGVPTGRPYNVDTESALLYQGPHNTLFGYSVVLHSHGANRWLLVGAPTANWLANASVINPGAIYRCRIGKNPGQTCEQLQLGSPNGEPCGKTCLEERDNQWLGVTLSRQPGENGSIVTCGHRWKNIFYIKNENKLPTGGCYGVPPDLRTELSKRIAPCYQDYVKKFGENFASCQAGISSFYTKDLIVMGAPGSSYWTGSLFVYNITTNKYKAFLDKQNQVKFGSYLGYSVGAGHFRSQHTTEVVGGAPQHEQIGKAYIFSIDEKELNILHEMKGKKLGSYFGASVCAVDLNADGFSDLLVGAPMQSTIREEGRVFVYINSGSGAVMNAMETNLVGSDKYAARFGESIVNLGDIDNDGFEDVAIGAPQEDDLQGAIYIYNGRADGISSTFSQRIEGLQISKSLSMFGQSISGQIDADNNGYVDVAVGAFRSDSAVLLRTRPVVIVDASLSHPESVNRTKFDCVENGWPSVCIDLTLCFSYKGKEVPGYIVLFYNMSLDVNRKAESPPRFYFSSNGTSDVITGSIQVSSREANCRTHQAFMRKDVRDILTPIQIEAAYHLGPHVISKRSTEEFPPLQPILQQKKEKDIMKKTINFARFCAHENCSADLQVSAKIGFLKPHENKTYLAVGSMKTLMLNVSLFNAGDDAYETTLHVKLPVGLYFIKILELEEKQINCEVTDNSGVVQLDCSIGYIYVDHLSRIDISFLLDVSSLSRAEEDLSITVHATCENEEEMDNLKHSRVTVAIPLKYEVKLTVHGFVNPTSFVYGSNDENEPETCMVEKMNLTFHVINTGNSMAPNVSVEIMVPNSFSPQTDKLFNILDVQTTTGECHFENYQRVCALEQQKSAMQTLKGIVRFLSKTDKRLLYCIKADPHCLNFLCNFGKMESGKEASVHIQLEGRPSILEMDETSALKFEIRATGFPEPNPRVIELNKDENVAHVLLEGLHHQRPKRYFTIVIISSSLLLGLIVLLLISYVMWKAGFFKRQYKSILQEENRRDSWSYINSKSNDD
- ASSAY: In vitro Very late antigen 4 cell adhesion inhibitory activity measured by binding of fluorescently labeled Ramos cells to immobilized VCAM-1.
- Assay type: cell-based
pIC50: −log10 of the molar value.
Classification by pIC50 | ranges: class A (below 4), class B (4 to below 8), class C (8 or more)

Cc1ccccc1NC(=O)Nc1ccc(CC(=O)N(CCC(C)C)CC(=O)N(CCC(=O)O)CCc2ccccc2)cc1 :: class B
COCCCCN(CC(=O)N[C@@H](CC(=O)O)c1ccc(OC)c(OC)c1)C(=O)Cc1ccc(NC(=O)Nc2ccccc2C)cc1 :: class C
Cc1ccccc1NC(=O)Nc1ccc(CC(=O)N[C@H](CC(=O)N(CC(=O)O)Cc2ccccc2)CC(C)C)cc1 :: class A
COc1ccc([C@H](CC(=O)O)NC(=O)CN(CCC(C)C)C(=O)Cc2ccc(NC(=O)Nc3ccccc3C)cc2)cc1OC :: class B
CCOC(=O)C[C@H](NC(=O)CN(CCCOC)C(=O)Cc1ccc(NC(=O)Nc2ccccc2C)cc1)c1ccc(OC)cc1 :: class B
Cc1ccccc1NC(=O)Nc1ccc(CC(=O)N[C@@H](CC(C)C)C(=O)N[C@@H](CC(=O)O)c2ccc3c(c2)OCO3)cc1 :: class C
Cc1ccccc1NC(=O)Nc1ccc(CC(=O)N[C@@H](CC(=O)N[C@@H](CC(=O)O)c2ccccc2)CC(C)C)cc1 :: class A
COCCCN(CC(=O)N[C@@H](CC(=O)O)c1ccc(OC)cc1)C(=O)Cc1ccc(NC(=O)Nc2ccccc2C)cc1 :: class C
